Taken from patent US10662174B2.

Recorded IC50 for the following compounds
# Test system: BTK kinase (Homo sapiens, UniProt Q06187)
# Construct: purchased Invitrogen PR5442A
# Sequence (Q06187 whole entry): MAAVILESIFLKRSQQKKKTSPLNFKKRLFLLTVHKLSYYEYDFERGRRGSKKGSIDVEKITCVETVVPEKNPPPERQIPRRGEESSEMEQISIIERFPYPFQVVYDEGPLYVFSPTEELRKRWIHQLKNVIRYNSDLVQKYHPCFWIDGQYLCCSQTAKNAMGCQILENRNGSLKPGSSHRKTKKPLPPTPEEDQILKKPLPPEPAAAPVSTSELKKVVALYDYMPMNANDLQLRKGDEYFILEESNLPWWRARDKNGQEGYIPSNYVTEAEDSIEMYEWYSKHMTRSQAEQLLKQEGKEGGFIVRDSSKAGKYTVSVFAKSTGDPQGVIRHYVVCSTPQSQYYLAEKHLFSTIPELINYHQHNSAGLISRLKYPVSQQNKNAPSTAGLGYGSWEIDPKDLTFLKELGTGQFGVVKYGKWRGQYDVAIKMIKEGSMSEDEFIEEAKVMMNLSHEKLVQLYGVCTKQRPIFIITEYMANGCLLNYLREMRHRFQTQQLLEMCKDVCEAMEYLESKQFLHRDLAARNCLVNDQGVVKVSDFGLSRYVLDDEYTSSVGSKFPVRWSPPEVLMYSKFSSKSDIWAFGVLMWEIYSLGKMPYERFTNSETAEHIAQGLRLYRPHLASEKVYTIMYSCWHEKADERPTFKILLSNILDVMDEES
# Assay notes: Assay of inhibition activity of BTK in vitro (HTRF kit, read on Envision)
# Type: biochemical
# Conditions: 1.0 nM BTK, 1 μM biotin-TK1 peptide, 20 μM ATP, 23° C., tested by Envision; read-out: BTK IC50
# Method: Assay of Inhibition Activity of BTK In Vitro The inhibition of compounds on BTK kinase was evaluated by […] detected by Envision, using the IC50 value of the compounds as index. BTK kinase: Invitrogen-PR5442A HTRF Assay Kit: Cisbio-62TKOPEJ […] The reaction was stopped by adding 10 μL Detection Reagent to each well of Assay plate, and the plate was left in incubator at 23° C. for 1 h before read on Envision. Data analysis: The IC50 values of compounds were calculated using Excel fit.
Observation type: IC50

[
  {
    "Compound": "C=CC(=O)N1CCCC(n2nc(-c3ccc(Oc4cccc(C)c4)cc3)c3c(N)n[nH]c(=O)c32)C1 (stereo not shown)",
    "Test system": "BTK kinase (Homo sapiens, UniProt Q06187)",
    "Assay value": "1000 to 10000 nM"
  },
  {
    "Compound": "C=CC(=O)N(C)[C@H]1CC[C@@H](n2nc(-c3ccc(Oc4ccccc4)cc3)c3c(N)n[nH]c(=O)c32)CC1",
    "Test system": "BTK kinase (Homo sapiens, UniProt Q06187)",
    "Assay value": "< 100 nM"
  },
  {
    "Compound": "C=CC(=O)N1CCC[C@H]1Cn1nc(-c2ccc(Oc3ccccc3)cc2)c2c(N)n[nH]c(=O)c21",
    "Test system": "BTK kinase (Homo sapiens, UniProt Q06187)",
    "Assay value": "< 100 nM"
  },
  {
    "Compound": "C=CC(=O)N1CCC[C@@H](Nc2ncnc(N)c2-n2ncc3cc(OCCOC)ccc32)C1",
    "Test system": "BTK kinase (Homo sapiens, UniProt Q06187)",
    "Assay value": "1000 to 10000 nM"
  }
]

====

# Test system: BTK kinase (Homo sapiens, UniProt Q06187)
# Construct: purchased Invitrogen PR5442A
# Assay notes: Assay of inhibition activity of BTK in vitro (HTRF kit, read on Envision)
# Assay type: biochemical
# Conditions: 1.0 nM BTK, 1 μM biotin-TK1 peptide, 20 μM ATP, 23° C., tested by Envision; read-out: BTK IC50
# Method: Assay of Inhibition Activity of BTK In Vitro The inhibition of compounds on BTK kinase was evaluated by […] detected by Envision, using the IC50 value of the compounds as index. BTK kinase: Invitrogen-PR5442A HTRF Assay Kit: Cisbio-62TKOPEJ […] The reaction was stopped by adding 10 μL Detection Reagent to each well of Assay plate, and the plate was left in incubator at 23° C. for 1 h before read on Envision. Data analysis: The IC50 values of compounds were calculated using Excel fit.
pIC50: −log10 of the molar value.
Observation type: pIC50

[
  {
    "Molecule": "C=CC(=O)N1CC2(CC(n3nc(-c4ccc(Oc5ccccc5)cc4)c4c(N)n[nH]c(=O)c43)C2)C1 [Example 46]",
    "Observation type": "pIC50",
    "Assay value": "> 7.00"
  },
  {
    "Molecule": "C=CC(=O)N1CCC[C@@H](n2nc(-c3ccc4c(cnn4-c4ccccc4)c3)c3c(N)n[nH]c(=O)c32)C1 [Example 47]",
    "Observation type": "pIC50",
    "Assay value": "5.00 to 6.00"
  },
  {
    "Molecule": "N#CC(=CC1CC1)C(=O)N1CCC[C@@H](n2nc(-c3ccc(Oc4ccccc4)cc3)c3c(N)n[nH]c(=O)c32)C1 [Example 76]",
    "Observation type": "pIC50",
    "Assay value": "> 7.00"
  },
  {
    "Molecule": "C=CC(=O)N1CCCC(n2nc(-c3ccc(Oc4cccc(F)c4)cc3)c3c(N)n[nH]c(=O)c32)C1 (stereo not drawn) [Example 56]",
    "Observation type": "pIC50",
    "Assay value": "> 7.00"
  },
  {
    "Molecule": "C=CC(=O)N1CCC[C@@H](n2nc(-c3ccc(-c4nc5ccccc5o4)cc3)c3c(N)n[nH]c(=O)c32)C1 [Example 88]",
    "Observation type": "pIC50",
    "Assay value": "> 7.00"
  },
  {
    "Molecule": "C=CC(=O)Nc1ccc2cnn(-c3ncnc(Nc4ccc(OCCOC)cc4)n3)c2c1 [Example 15]",
    "Observation type": "pIC50",
    "Assay value": "5.00 to 6.00"
  },
  {
    "Molecule": "C=CC(=O)N[C@H]1CC[C@@H](n2nc(-c3ccc(Oc4ccccc4F)cc3)c3c(N)n[nH]c(=O)c32)CC1 [Example 83]",
    "Observation type": "pIC50",
    "Assay value": "> 7.00"
  },
  {
    "Molecule": "CC#CC(=O)N1CCC[C@@H](n2nc(-c3ccc(Oc4ccccc4)cc3)c3c(N)n[nH]c(=O)c32)C1 [Example 45]",
    "Observation type": "pIC50",
    "Assay value": "> 7.00"
  },
  {
    "Molecule": "C=CC(=O)N1CCCC(Nc2ncnc(N)c2C(=O)c2ccc(Oc3ccccc3)cc2Cl)C1 (stereo not drawn) [Example 42]",
    "Observation type": "pIC50",
    "Assay value": "6.00 to 7.00"
  },
  {
    "Molecule": "Cc1ccn2c(=O)c(-c3cccc(-c4cc(Nc5ccc(N6CCN(C)CC6)cn5)c(=O)n(C)c4)c3C)ccc2c1 [Example 10]",
    "Observation type": "pIC50",
    "Assay value": "5.00 to 6.00"
  },
  {
    "Molecule": "CN(C)C/C=C/C(=O)N[C@H]1CC[C@@H](n2nc(-c3ccc(Oc4ccccc4)cc3)c3c(N)n[nH]c(=O)c32)CC1 [Example 59]",
    "Observation type": "pIC50",
    "Assay value": "> 7.00"
  },
  {
    "Molecule": "C=CC(=O)N1CCC[C@@H](Nc2ncnc(N)c2C(=O)c2ccc(Nc3ccccc3)cc2)C1 [Example 4]",
    "Observation type": "pIC50",
    "Assay value": "5.00 to 6.00"
  },
  {
    "Molecule": "C=CC(=O)N1CCCC(n2nc(-c3ccc(Oc4ccccc4)cc3)c3cc4c(N)ncnc4cc32)C1 (stereo not drawn) [Example 108]",
    "Observation type": "pIC50",
    "Assay value": "5.00 to 6.00"
  },
  {
    "Molecule": "C=CC(=O)N1CCC[C@@H](Nc2ncnc(N)c2C(=O)c2ccc(Oc3ccccc3)cc2F)C1 [Example 26]",
    "Observation type": "pIC50",
    "Assay value": "5.00 to 6.00"
  },
  {
    "Molecule": "C=CC(=O)N1CCC[C@@H](n2nc(-c3ccc(OC4Cc5ccccc5C4)cc3)c3c(N)n[nH]c(=O)c32)C1 [Example 74]",
    "Observation type": "pIC50",
    "Assay value": "> 7.00"
  }
]

====

Recorded IC50 for the following compounds
# Test system: BTK kinase (Homo sapiens)
# Construct: purchased Invitrogen PR5442A
# Assay notes: Assay of inhibition activity of BTK in vitro (HTRF kit, read on Envision)
# Format: biochemical
# Conditions: 1.0 nM BTK, 1 μM biotin-TK1 peptide, 20 μM ATP, 23° C., tested by Envision; read-out: BTK IC50
Observation type: IC50

[
  {
    "Compound": "CN(C)C/C=C/C(=O)N[C@H]1CC[C@@H](n2nc(-c3ccc(Oc4ccccn4)cc3)c3c(N)n[nH]c(=O)c32)CC1 [Example 64]",
    "Test system": "BTK kinase (Homo sapiens)",
    "Assay value": "100 to 1000 nM"
  },
  {
    "Compound": "C=CC(=O)N1CCCC(n2nc(-c3ccc(Oc4ccccc4)cc3)c3cc4c(N)noc4cc32)C1 (stereo not drawn) [Example 107]",
    "Test system": "BTK kinase (Homo sapiens)",
    "Assay value": "1000 to 10000 nM"
  },
  {
    "Compound": "CN(C)/C=C/CC(=O)N1CCCC(n2nc(-c3ccc(Oc4ccccc4)cc3)c3c(N)n[nH]c(=O)c32)C1 (stereo not drawn) [Example 84]",
    "Test system": "BTK kinase (Homo sapiens)",
    "Assay value": "< 100 nM"
  },
  {
    "Compound": "C=CC(=O)N1CCCC(n2nc(-c3ccc(Oc4ccccc4F)cc3)c3c(N)n[nH]c(=O)c32)C1 (stereo not drawn) [Example 71]",
    "Test system": "BTK kinase (Homo sapiens)",
    "Assay value": "< 100 nM"
  },
  {
    "Compound": "C=CC(=O)N(C)CCn1nc(-c2ccc(Oc3ccccc3)cc2)c2c(N)n[nH]c(=O)c21 [Example 31]",
    "Test system": "BTK kinase (Homo sapiens)",
    "Assay value": "< 100 nM"
  },
  {
    "Compound": "CN(C)C/C=C/C(=O)N1CC[C@@H](n2nc(-c3ccc(Oc4ccccc4)cc3)c3c(N)n[nH]c(=O)c32)C1 [Example 61]",
    "Test system": "BTK kinase (Homo sapiens)",
    "Assay value": "< 100 nM"
  },
  {
    "Compound": "C=CC(=O)N1CCCC(n2nc(-c3ccc(Oc4ccccc4)cc3)c3c(N)nn(C)c(=O)c32)C1 (stereo not drawn) [Example 85]",
    "Test system": "BTK kinase (Homo sapiens)",
    "Assay value": "100 to 1000 nM"
  },
  {
    "Compound": "C=CC(=O)N1CCCC(n2nc(-c3ccc(Oc4ccc(C)cc4)cc3)c3c(N)n[nH]c(=O)c32)C1 (stereo not drawn) [Example 55]",
    "Test system": "BTK kinase (Homo sapiens)",
    "Assay value": "< 100 nM"
  },
  {
    "Compound": "C=CC(=O)N1CCCC(n2nc(-c3ccc(Oc4ccccc4)cc3)c3c(N)nn(CC)c(=O)c32)C1 (stereo not drawn) [Example 86]",
    "Test system": "BTK kinase (Homo sapiens)",
    "Assay value": "1000 to 10000 nM"
  },
  {
    "Compound": "C=CC(=O)N1CCC(n2nc(-c3ccc(Oc4ccccc4)cc3)c3c(N)n[nH]c(=O)c32)C1 (stereo not drawn) [Example 43]",
    "Test system": "BTK kinase (Homo sapiens)",
    "Assay value": "< 100 nM"
  },
  {
    "Compound": "C=CC(=O)N1CCC[C@@H](n2cc(-c3ccc(Oc4ccccc4)cc3)c3c(N)n[nH]c(=O)c32)C1 [Example 53]",
    "Test system": "BTK kinase (Homo sapiens)",
    "Assay value": "< 100 nM"
  },
  {
    "Compound": "C=CC(=O)NC1CCCC(n2nc(-c3ccc(Oc4ccccc4)cc3)c3c(N)n[nH]c(=O)c32)C1 (stereo not drawn) [Example 62]",
    "Test system": "BTK kinase (Homo sapiens)",
    "Assay value": "< 100 nM"
  },
  {
    "Compound": "C=CC(=O)N1CCC[C@@H](n2nc(-c3ccc(OC4CC4)cc3)c3c(N)n[nH]c(=O)c32)C1 [Example 33]",
    "Test system": "BTK kinase (Homo sapiens)",
    "Assay value": "< 100 nM"
  },
  {
    "Compound": "C=CC(=O)Nc1cccc2c1cnn2-c1nc(Nc2ccc(OCCOC)cc2)ncc1F [Example 13]",
    "Test system": "BTK kinase (Homo sapiens)",
    "Assay value": "1000 to 10000 nM"
  },
  {
    "Compound": "C=CC(=O)N1CC(n2nc(-c3ccc(Oc4ccccc4)cc3)c3c(N)n[nH]c(=O)c32)C1 [Example 73]",
    "Test system": "BTK kinase (Homo sapiens)",
    "Assay value": "< 100 nM"
  }
]
